Target: rat-species vanilloid receptor 1 (VR1/TRPV1) (Rattus norvegicus, UniProt O35433)
Construct: endogenous in cells; host or cells: primary cells dissociated from rat dorsal root ganglia (DRG)
Sequence (O35433 whole entry): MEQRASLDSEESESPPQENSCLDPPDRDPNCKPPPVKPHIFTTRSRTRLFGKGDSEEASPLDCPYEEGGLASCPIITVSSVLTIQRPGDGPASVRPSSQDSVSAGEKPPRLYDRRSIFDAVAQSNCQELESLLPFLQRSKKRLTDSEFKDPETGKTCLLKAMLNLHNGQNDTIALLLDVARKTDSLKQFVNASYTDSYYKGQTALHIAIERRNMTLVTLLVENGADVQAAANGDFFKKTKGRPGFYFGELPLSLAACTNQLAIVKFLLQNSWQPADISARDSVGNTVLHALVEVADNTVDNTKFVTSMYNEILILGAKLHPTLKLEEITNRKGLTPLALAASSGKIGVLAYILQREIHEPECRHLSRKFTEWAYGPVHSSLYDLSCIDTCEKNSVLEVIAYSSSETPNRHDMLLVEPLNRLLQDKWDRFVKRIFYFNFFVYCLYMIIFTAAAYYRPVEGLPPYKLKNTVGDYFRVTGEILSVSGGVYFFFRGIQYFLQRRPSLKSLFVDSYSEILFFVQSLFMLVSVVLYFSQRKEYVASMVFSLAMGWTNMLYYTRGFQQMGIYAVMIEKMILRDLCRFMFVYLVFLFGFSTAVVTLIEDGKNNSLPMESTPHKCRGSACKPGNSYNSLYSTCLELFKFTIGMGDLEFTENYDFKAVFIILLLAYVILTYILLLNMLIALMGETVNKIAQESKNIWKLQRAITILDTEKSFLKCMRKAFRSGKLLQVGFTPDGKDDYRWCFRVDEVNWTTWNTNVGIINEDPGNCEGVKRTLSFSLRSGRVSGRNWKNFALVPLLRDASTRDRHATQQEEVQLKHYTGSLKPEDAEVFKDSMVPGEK
Assay: Functional testing on vanilloid receptor 1 (VR1/TRPV1): FLIPR Ca2+ inflow assay in rat dorsal root ganglia cells (% activation / % inhibition vs capsaicin)
Assay type: cell-based
Conditions: stimulation compared to 10 μM CP (capsaicin)
measured-attribute: activation at 10 µM (%)

molecule: CC(C)(C)c1ccc(C=CC(=O)N2CCC3(CC2)CC(c2ccccc2)=NO3)cc1
target-or-test-system: rat-species vanilloid receptor 1 (VR1/TRPV1) (Rattus norvegicus, UniProt O35433)
number: 0
--
molecule: COc1cccc(C2=NOC3(CCN(C(=O)Nc4ccc(C(C)(C)C)cc4)CC3)C2)c1
target-or-test-system: rat-species vanilloid receptor 1 (VR1/TRPV1) (Rattus norvegicus, UniProt O35433)
number: 1.4
--
molecule: CC(C(=O)N1CCC2(CC1)CC(c1cccc(F)c1)=NO2)c1ccc(NS(C)(=O)=O)c(F)c1 (centres unmarked)
target-or-test-system: rat-species vanilloid receptor 1 (VR1/TRPV1) (Rattus norvegicus, UniProt O35433)
number: 0
--
molecule: O=C(Nc1ccc(I)cc1)N1CCC2(CC1)CC(c1ccccc1)=NO2
target-or-test-system: rat-species vanilloid receptor 1 (VR1/TRPV1) (Rattus norvegicus, UniProt O35433)
number: -0.73
--
molecule: COc1cccc(NC(=O)N2CCC3(CC2)CC(c2ccccc2)=NO3)c1
target-or-test-system: rat-species vanilloid receptor 1 (VR1/TRPV1) (Rattus norvegicus, UniProt O35433)
number: 0.15
--
molecule: Cc1ccc(C2=NOC3(CCN(C(=S)NC4CCCC4)CC3)C2)cc1
target-or-test-system: rat-species vanilloid receptor 1 (VR1/TRPV1) (Rattus norvegicus, UniProt O35433)
number: -0.47
--
molecule: CC1CN(C(=O)Nc2ccc(C(C)(C)C)cc2)CCC12CC(c1ccccc1F)=NO2 (centres unmarked)
target-or-test-system: rat-species vanilloid receptor 1 (VR1/TRPV1) (Rattus norvegicus, UniProt O35433)
number: 4
--
molecule: COc1cccc(C2=NOC3(CCN(C(=O)NCCc4ccccc4)CC3)C2)c1
target-or-test-system: rat-species vanilloid receptor 1 (VR1/TRPV1) (Rattus norvegicus, UniProt O35433)
number: -0.47
